Recorded values, source patent US6914045B2.

# System: Staphylococcus sp.
# assay.notes: in vitro antibacterial evaluation, MIC by broth dilution
# Format: cell-based
# assay.conditions: broth dilution, 18 hours at 35° C.; strain GC 4541
result.type: MIC Staphylococcus aureus (GC 4541) (µg/mL)
Write the value in µg/mL as a bare number.

Here are 5 compounds together with their reported answers.
1. CC(C)=CCCC(C)CC1OCC2OC(OC3C(CO)OC(Oc4ccc(CC5NC(=O)C(C(C)c6ccccc6)NC(=O)CNC(=O)C(CO)NC(=O)C(C(O)C6CNC(=N)N6C6OC(CO)C(O)C(O)C6O)NC(=O)C(C(O)C6CNC(=N)N6)NC5=O)cc4)C(O)C3O)C(O)C(O)C2O1 (stereo not shown)
8
2. COc1cc(C2OCC3OC(OC4C(CO)OC(Oc5ccc(CC6NC(=O)C(C(C)c7ccccc7)NC(=O)CNC(=O)C(CO)NC(=O)C(C(O)C7CNC(=N)N7C7OC(CO)C(O)C(O)C7O)NC(=O)C(C(O)C7CNC(=N)N7)NC6=O)cc5)C(O)C4O)C(O)C(O)C3O2)ccc1[N+](=O)[O-] (stereo not shown)
2
3. COc1ccc(COCC2OC(OC3C(CO)OC(Oc4ccc(CC5NC(=O)C(C(C)c6ccccc6)NC(=O)CNC(=O)C(CO)NC(=O)C(C(O)C6CNC(=N)N6C6OC(CO)C(O)C(O)C6O)NC(=O)C(C(O)C6CNC(=N)N6)NC5=O)cc4)C(O)C3O)C(O)C(O)C2O)cc1OCc1ccccc1 (stereo not shown)
4
4. CSc1ccc(C2OCC3OC(OC4C(CO)OC(Oc5ccc(CC6NC(=O)C(C(C)c7ccccc7)NC(=O)CNC(=O)C(CO)NC(=O)C(C(O)C7CNC(=N)N7C7OC(CO)C(O)C(O)C7O)NC(=O)C(C(O)C7CNC(=N)N7)NC6=O)cc5)C(O)C4O)C(O)C(O)C3O2)cc1 (stereo not shown)
0.5
5. CC(c1ccccc1)C1NC(=O)CNC(=O)C(CO)NC(=O)C(C(O)C2CNC(=N)N2C2OC(CO)C(O)C(O)C2O)NC(=O)C(C(O)C2CNC(=N)N2)NC(=O)C(Cc2ccc(OC3OC(CO)C(OC4OC5COC(CC6CCCCC6)OC5C(O)C4O)C(O)C3O)cc2)NC1=O (stereo not shown)
2

Alright, here's another compound for you.
So what MIC Staphylococcus aureus (GC 4541) did CC(c1ccccc1)C1NC(=O)CNC(=O)C(CO)NC(=O)C(C(O)C2CNC(=N)N2C2OC(CO)C(O)C(O)C2O)NC(=O)C(C(O)C2CNC(=N)N2)NC(=O)C(Cc2ccc(OC3OC(CO)C(OC4OC(CO)C(OCC=C(c5ccccc5)c5ccccc5)C(O)C4O)C(O)C3O)cc2)NC1=O (stereo not shown) [Example 241a] get with Staphylococcus sp.? 2

* * *

# Tested on: Staphylococcus sp.
# assay.notes: in vitro antibacterial evaluation, MIC by broth dilution
# Assay type: cell-based
# assay.conditions: strain GC 4544; broth dilution, 18 hours at 35° C.
result.type: MIC Staphylococcus aureus (GC 4544) (µg/mL)
Write the value in µg/mL as a bare number.

Here are 2 compounds together with their reported answers.
1. CC(c1ccccc1)C1NC(=O)CNC(=O)C(CO)NC(=O)C(C(O)C2CNC(=N)N2C2OC(CO)C(O)C(O)C2O)NC(=O)C(C(O)C2CNC(=N)N2)NC(=O)C(Cc2ccc(OC3OC(CO)C(OC4OC5COC(c6ccccc6)OC5C(O)C4O)C(O)C3O)cc2)NC1=O (stereo not shown)
1
2. CC(c1ccccc1)C1NC(=O)CNC(=O)C(CO)NC(=O)C(C(O)C2CNC(=N)N2C2OC(CO)C(O)C(O)C2O)NC(=O)C(C(O)C2CNC(=N)N2)NC(=O)C(Cc2ccc(OC3OC(CO)C(OC4OC5COC6(OC5C(O)C4O)C(C)CCCC6C)C(O)C3O)cc2)NC1=O (stereo not shown)
1

Alright, here's another compound for you.
So what MIC Staphylococcus aureus (GC 4544) did CC(c1ccccc1)C1NC(=O)CNC(=O)C(CO)NC(=O)C(C(O)C2CNC(=N)N2C2OC(CO)C(O)C(O)C2O)NC(=O)C(C(O)C2CNC(=N)N2)NC(=O)C(Cc2ccc(OC3OC(CO)C(OC4OC5COC(c6ccc(C(=O)c7cc(I)c(I)c(I)c7)cc6)OC5C(O)C4O)C(O)C3O)cc2)NC1=O (stereo not shown) get with Staphylococcus sp.? 64

* * *

Here the recorded MIC Enterococcus faecalis (GC 4553) is given for each entry.
# Tested on: Enterococcus sp.
# assay.notes: in vitro antibacterial evaluation, MIC by broth dilution
# Assay type: cell-based
# assay.conditions: broth dilution, 18 hours at 35° C.
Write the value in µg/mL as a bare number.

1) CC(c1ccccc1)C1NC(=O)CNC(=O)C(CO)NC(=O)C(C(O)C2CNC(=N)N2C2OC(CO)C(O)C(O)C2O)NC(=O)C(C(O)C2CNC(=N)N2)NC(=O)C(Cc2ccc(OC3OC(CO)C(OC4OC(COCc5ccc(OCc6ccccc6)cc5)C(O)C(O)C4O)C(O)C3O)cc2)NC1=O (stereo not shown)
4

Look at this molecule and give its reported MIC Enterococcus faecalis (GC 4553). CC(c1ccccc1)C1NC(=O)CNC(=O)C(CO)NC(=O)C(C(O)C2CN(c3nc4ccccc4o3)C(=N)N2C2OC(CO)C(O)C(O)C2O)NC(=O)C(C(O)C2CNC(=Nc3nc4ccccc4o3)N2)NC(=O)C(Cc2ccc(OC3OC(CO)C(OC4OC5COC6(OC5C(O)C4O)C4CC5CC(C4)CC6C5)C(O)C3O)cc2)NC1=O (stereo not shown) 8

Look at this molecule and give its reported MIC Enterococcus faecalis (GC 4553). CCCCCCN=C1NCC(C(O)C2NC(=O)C(C(O)C3CNC(=N)N3)NC(=O)C(Cc3ccc(OC4OC(CO)C(OC5OC6COC7(OC6C(O)C5O)C5CC6CC(C5)CC7C6)C(O)C4O)cc3)NC(=O)C(C(C)c3ccccc3)NC(=O)CNC(=O)C(CO)NC2=O)N1C1OC(CO)C(O)C(O)C1O (stereo not shown) 8

Look at this molecule and give its reported MIC Enterococcus faecalis (GC 4553). CC(c1ccccc1)C1NC(=O)CNC(=O)C(CO)NC(=O)C(C(O)C2CNC(=N)N2C2OC(CO)C(O)C(O)C2O)NC(=O)C(C(O)C2CNC(=N)N2)NC(=O)C(Cc2ccc(OC3OC(CO)C(OC4OC5COC6(CCC(C(C)(C)C)CC6)OC5C(O)C4O)C(O)C3O)cc2)NC1=O (stereo not shown) 8

* * *

Here the recorded MIC Enterococcus faecium (GC 2243) is given for each entry.
# Test system: Enterococcus sp.
# assay.notes: in vitro antibacterial evaluation, MIC by broth dilution
# Format: cell-based
# assay.conditions: broth dilution, 18 hours at 35° C.; strain GC 2243
Write the value in µg/mL as a bare number.

1. COc1ccc(COC2C(CO)OC(OC3C(CO)OC(Oc4ccc(CC5NC(=O)C(C(C)c6ccccc6)NC(=O)CNC(=O)C(CO)NC(=O)C(C(O)C6CNC(=N)N6C6OC(CO)C(O)C(O)C6O)NC(=O)C(C(O)C6CNC(=N)N6)NC5=O)cc4)C(O)C3O)C(O)C2O)cc1OCc1ccccc1 (stereo not drawn) [Example 239a]
8

Look at this compound and give its reported MIC Enterococcus faecium (GC 2243). CC(c1ccccc1)C1NC(=O)CNC(=O)C(CO)NC(=O)C(C(O)C2CNC(=N)N2C2OC(CO)C(O)C(O)C2O)NC(=O)C(C(O)C2CNC(=N)N2)NC(=O)C(Cc2ccc(OC3OC(CO)C(OC4OC5COC(CC6CCN(C(=O)OCc7ccccc7)CC6)OC5C(O)C4O)C(O)C3O)cc2)NC1=O (stereo not drawn) 2

* * *

# Tested on: Staphylococcus sp.
# assay.notes: in vitro antibacterial evaluation, MIC by broth dilution
# Assay type: cell-based
# assay.conditions: strain GC 4544; broth dilution, 18 hours at 35° C.
result.type: MIC Staphylococcus aureus (GC 4544) (µg/mL)
Write the value in µg/mL as a bare number.

Here are 2 compounds together with their reported answers.
1) CC(c1ccc(Cl)cc1)C1NC(=O)CNC(=O)C(CO)NC(=O)C(C(O)C2CNC(=N)N2C2OC(CO)C(O)C(O)C2O)NC(=O)C(C(O)C2CNC(=N)N2)NC(=O)C(Cc2ccc(OC3OC(CO)C(OC4OC5COC(C6CCCCC6)OC5C(O)C4O)C(O)C3O)cc2)NC1=O (stereo not shown)
1
2) CC(c1ccccc1)C1NC(=O)CNC(=O)C(CO)NC(=O)C(C(O)C2CNC(=N)N2C2OC(CO)C(O)C(O)C2O)NC(=O)C(C(O)C2CNC(=N)N2)NC(=O)C(Cc2ccc3oc(SCC(=O)c4ccc(Cl)cc4)nc3c2)NC1=O (stereo not shown)
4

So what MIC Staphylococcus aureus (GC 4544) did CCCC(C)C1OCC2OC(OC3C(CO)OC(Oc4ccc(CC5NC(=O)C(C(C)c6ccc(Cl)cc6)NC(=O)CNC(=O)C(CO)NC(=O)C(C(O)C6CNC(=N)N6C6OC(CO)C(O)C(O)C6O)NC(=O)C(C(O)C6CNC(=N)N6)NC5=O)cc4)C(O)C3O)C(O)C(O)C2O1 (stereo not shown) get with Staphylococcus sp.? 2
